Target: Acid ceramidase (Homo sapiens, UniProt Q13510)
Sequence (Q13510 22-142 limits assumed): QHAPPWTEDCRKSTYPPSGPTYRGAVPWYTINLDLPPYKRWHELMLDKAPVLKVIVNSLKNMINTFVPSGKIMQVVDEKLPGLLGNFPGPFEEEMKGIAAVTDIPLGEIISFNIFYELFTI
Sequence (Q13510 143-395 limits assumed): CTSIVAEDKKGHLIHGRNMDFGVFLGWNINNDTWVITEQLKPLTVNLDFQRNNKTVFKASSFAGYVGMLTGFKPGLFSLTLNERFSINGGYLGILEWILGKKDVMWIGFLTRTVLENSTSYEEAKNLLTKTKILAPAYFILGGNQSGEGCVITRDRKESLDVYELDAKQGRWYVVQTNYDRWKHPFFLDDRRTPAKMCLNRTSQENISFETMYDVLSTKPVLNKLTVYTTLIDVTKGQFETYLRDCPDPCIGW
Assay: Inhibition of aCDase in Moh.pAS AcCer10X cells using RBM14C12 as substrate after 1 hr by HPLC-FD analysis
Assay type: cell-based
pIC50: −log10 of the molar value.
Each entry below carries its recorded pIC50.

>  <structure-as-smiles>
CCCCCCCCCCCCCS/C=C/[C@H](CO)NC(=O)c1ccc(C(C)(C)C)cc1

>  <pIC50>
3.50

$$$$
>  <structure-as-smiles>
CCCCCCCCCCCCCS/C=C/[C@H](CO)NC(=O)C(C)(C)C

>  <pIC50>
4.29

$$$$
>  <structure-as-smiles>
CCCCCCCCCCCCCS/C=C/[C@H](CO)NC(=O)CCCCCCC

>  <pIC50>
4.11

$$$$
